Known inhibition at 1 µM of a selection of compounds
Target: HPK1 (MAP4K1) (Homo sapiens, UniProt Q92918)
Sequence (Q92918 whole entry): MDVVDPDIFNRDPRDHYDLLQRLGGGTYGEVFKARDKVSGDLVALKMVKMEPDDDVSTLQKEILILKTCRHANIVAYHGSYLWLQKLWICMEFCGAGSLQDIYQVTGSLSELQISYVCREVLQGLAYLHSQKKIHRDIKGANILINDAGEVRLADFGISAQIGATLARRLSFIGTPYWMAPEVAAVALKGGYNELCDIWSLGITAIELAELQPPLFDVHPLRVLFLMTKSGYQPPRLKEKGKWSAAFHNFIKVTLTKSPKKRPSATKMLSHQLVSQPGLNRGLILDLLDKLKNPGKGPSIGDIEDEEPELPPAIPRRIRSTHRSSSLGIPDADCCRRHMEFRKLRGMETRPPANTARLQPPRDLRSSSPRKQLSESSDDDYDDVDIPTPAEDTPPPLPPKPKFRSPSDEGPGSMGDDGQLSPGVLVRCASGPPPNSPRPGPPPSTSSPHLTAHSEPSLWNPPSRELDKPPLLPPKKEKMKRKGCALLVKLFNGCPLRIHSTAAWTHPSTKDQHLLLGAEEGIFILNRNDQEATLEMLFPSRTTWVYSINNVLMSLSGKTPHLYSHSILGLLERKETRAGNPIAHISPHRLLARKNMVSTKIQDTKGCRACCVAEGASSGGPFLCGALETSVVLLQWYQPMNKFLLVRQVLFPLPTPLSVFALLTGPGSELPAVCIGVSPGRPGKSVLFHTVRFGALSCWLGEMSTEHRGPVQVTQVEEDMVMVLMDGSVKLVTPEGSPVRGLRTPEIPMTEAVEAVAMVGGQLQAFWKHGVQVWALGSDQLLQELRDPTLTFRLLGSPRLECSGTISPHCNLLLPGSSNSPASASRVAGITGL
Test: FRET Assay for HPK1 (MAP4K1): one step binding assay, displacement of labeled tracer
Conditions: 1 μM compound; FRET ratio 665/620, percent of control
Give the quantity in %, number only.

Examples from the recorded data:
- COMPOUND: "C/C(Nc1cc(C)n(C(C)(C)C#N)n1)=C1/C(=O)Nc2cnc(-c3c(C)cccc3F)cc21 [Example 207]"
  UNIT DESCRIPTOR: "%"
  VALUE MEASURED: 73.8
- COMPOUND: "COc1cccc(F)c1-c1cc2c(cn1)NC(=O)/C2=C(/C)Nc1ccc(N2CCNCC2)cc1 [Example 108]"
  UNIT DESCRIPTOR: "%"
  VALUE MEASURED: 74.2
- COMPOUND: "C/C(Nc1ccc(N2CCNCC2)nc1)=C1/C(=O)Nc2cnc(-c3cnccc3C)cc21 [Example 46]"
  UNIT DESCRIPTOR: "%"
  VALUE MEASURED: 85.3

Query: I am curious: what inhibition at 1 µM value has been reported for C/C(Nc1cnn(C)c1)=C1/C(=O)Nc2ccc(-c3cnccc3C)nc21 [Example 62] ?
Response: 80.3

Query: Okay, and CC/C(Nc1ccc(N2CCN(C)CC2)cc1)=C1/C(=O)Nc2ccc(-c3c(F)cccc3OC)cc21 [Example 9] ?
Response: 84.9

Query: Okay, and COc1cccc(F)c1-c1ccc2c(c1)/C(=C(\C)Nc1ccc(N3CCN(C)CC3)cc1)C(=O)N2 [Example 2] ?
Response: 88.6

Query: Okay, and C/C(Nc1cnn([C@@H](C)C#N)c1)=C1/C(=O)Nc2cnc(-c3cnccc3C)cc21 [Example 167] ?
Response: 69.2

Query: Okay, and C/C(Nc1ccc(C)nc1)=C1/C(=O)Nc2cnc(-c3cnccc3C)cc21 [Example 123] ?
Response: 81.8

---

Known inhibition at 1 µM of a selection of compounds
Biological target: HPK1 (MAP4K1) (Homo sapiens, UniProt Q92918)
Test: FRET Assay for HPK1 (MAP4K1): one step binding assay, displacement of labeled tracer
Conditions: 1 μM compound; FRET ratio 665/620, percent of control
Give the quantity in %, number only.

Examples from the recorded data:
- SMILES TEXT: "C/C(Nc1cnn(C)c1)=C1/C(=O)Nc2cnc(-c3cncc4c3OCC(=O)N4)cc21"
  METRIC: "inhibition at 1 µM"
  UNIT DESCRIPTOR: "%"
  VALUE MEASURED: 78.2
- SMILES TEXT: "C/C(Nc1cnn(C[C@H](C)O)c1)=C1/C(=O)Nc2cnc(-c3cnccc3C)cc21"
  METRIC: "inhibition at 1 µM"
  UNIT DESCRIPTOR: "%"
  VALUE MEASURED: 60.6
- SMILES TEXT: "C/C(Nc1ccn(C)n1)=C1/C(=O)Nc2cnc(-c3c(C)cccc3F)cc21"
  METRIC: "inhibition at 1 µM"
  UNIT DESCRIPTOR: "%"
  VALUE MEASURED: 78.9

Now consider the entry below.
Query: Checklist item: inhibition at 1 µM tested on HPK1 (MAP4K1) (Homo sapiens, UniProt Q92918), entry COc1cccc(F)c1-c1ccc2c(c1)/C(=C(\C)Nc1ccc(N3CCN(C)CC3)cc1C)C(=O)N2 , value?
Response: 73.2

---

Target: HPK1 (MAP4K1) (Homo sapiens, UniProt Q92918)
Test: FRET Assay for HPK1 (MAP4K1): one step binding assay, displacement of labeled tracer
Details: 10 μM compound; FRET ratio 665/620, percent of control
Rule for this label: TRUE means inhibition at 10 µM is less than 80%; FALSE means inhibition at 10 µM is at least 80%.

Illustrative cases are given below, each with its answer.
- COMPOUND: "C/C(Nc1cnn(CC[C@@H](C)O)c1)=C1/C(=O)Nc2cnc(-c3cnccc3C)cc21 [Example 165]"
  CATEGORY: "TRUE"
- COMPOUND: "CCOc1cccc(F)c1-c1cc2c(cn1)NC(=O)/C2=C(/C)Nc1cnn(C)c1 [Example 25]"
  CATEGORY: "FALSE"

Query: Hello, is inhibition at 10 µM of the following compound strictly smaller than 80%? C/C(Nc1ccn(CC(=O)N(C)C)n1)=C1/C(=O)Nc2cnc(-c3cnccc3C)cc21 [Example 128]
Response: FALSE

Query: Okay, and C/C(Nc1cnn(C)c1)=C1/C(=O)Nc2cnc(-c3c(F)cccc3OC(F)F)cc21 [Example 35] ?
Response: FALSE

Query: Okay, and C/C(Nc1cc(C)n(CC[C@H](C)O)n1)=C1/C(=O)Nc2cnc(-c3cnccc3C)cc21 [Example 195] ?
Response: TRUE

Query: Okay, and CC/C(Nc1cnn(C)c1)=C1/C(=O)Nc2ccc(-c3c(F)cccc3OC)cc21 [Example 17] ?
Response: FALSE

Query: Okay, and C/C(Nc1ccn([C@@H](C)CO)n1)=C1/C(=O)Nc2cnc(-c3cnccc3C)cc21 [Example 134] ?
Response: FALSE

Query: Okay, and C/C(Nc1cc(C)n(CC[C@@H](C)O)n1)=C1/C(=O)Nc2cnc(-c3cnccc3C)cc21 [Example 190] ?
Response: TRUE

Query: Okay, and CC(=O)N1CC(n2ccc(N/C(C)=C3\C(=O)Nc4cnc(-c5cnccc5C)cc43)n2)C1 [Example 120] ?
Response: TRUE

Query: Okay, and C/C(Nc1ccc(N2CCN(C3CC3)CC2)nc1)=C1/C(=O)Nc2cnc(-c3cnccc3C)cc21 [Example 96] ?
Response: TRUE

Query: Okay, and C/C(Nc1ccc(N2CCN(C)CC2)cc1)=C1/C(=O)Nc2ccc(F)cc21 [Example 6] ?
Response: FALSE

Query: Okay, and C/C(Nc1cc2n(n1)CCOC2)=C1/C(=O)Nc2cnc(-c3cnccc3C)cc21 [Example 146] ?
Response: FALSE

Query: Okay, and C/C(Nc1cc2n(n1)CC(=O)N(C(C)C)C2)=C1/C(=O)Nc2cnc(-c3c(C)cccc3F)cc21 [Example 206] ?
Response: FALSE

Query: Okay, and C/C(Nc1ccn(C)n1)=C1/C(=O)Nc2cc(C#N)c(-c3cnccc3C)cc21 [Example 139] ?
Response: FALSE

Query: Okay, and C/C(Nc1cnn(C)c1)=C1/C(=O)Nc2cccc(-c3cnccc3C)c21 [Example 159] ?
Response: FALSE

Query: Okay, and C/C(Nc1cnn(C2CC2)c1)=C1/C(=O)Nc2cnc(-c3cnccc3C)cc21 [Example 49] ?
Response: TRUE

Query: Okay, and COc1cccc(F)c1-c1cc2c(cn1)NC(=O)/C2=C(/C)Nc1cnn(C2CCOCC2)c1 [Example 44] ?
Response: FALSE

Query: Okay, and COc1cccc(F)c1-c1cc2c(cn1)NC(=O)/C2=C(\Nc1cnn(C)c1)C(C)C [Example 40] ?
Response: FALSE

Query: Okay, and COc1cccc(F)c1-c1cnc2c(c1)/C(=C(\C)Nc1cnn(C)c1)C(=O)N2 [Example 56] ?
Response: TRUE

Query: Okay, and C/C(Nc1cnn(C)c1)=C1/C(=O)Nc2cnc(-c3cnn(C)c3C)cc21 [Example 41] ?
Response: TRUE

Query: Okay, and COc1cccc(F)c1-c1cc2c(cn1)NC(=O)/C2=C(/C)Nc1cnn(C(F)F)c1 [Example 65] ?
Response: TRUE

Query: Okay, and COc1cccc(F)c1-c1cc2c(cn1)NC(=O)/C2=C(/C)Nc1ccc(N2CCNCC2)nc1 [Example 125] ?
Response: FALSE

---

Biological target: HPK1 (MAP4K1) (Homo sapiens)
Test: FRET Assay for HPK1 (MAP4K1): one step binding assay, displacement of labeled tracer
Details: 1 μM compound; FRET ratio 665/620, percent of control
Known inhibition at 1 µM of a selection of compounds
Give the quantity in %, number only.

- SMILES TEXT: "C/C(Nc1cnn(C)c1)=C1/C(=O)Nc2cnc(-c3cncc(N)c3C)cc21"
  TEST SYSTEM: "HPK1 (MAP4K1) (Homo sapiens)"
  inhibition at 1 µM / %: 81.2
- SMILES TEXT: "COc1cccc(F)c1-c1ccc2c(c1)/C(=C(/Nc1cnn(C)c1)c1ccccc1)C(=O)N2"
  TEST SYSTEM: "HPK1 (MAP4K1) (Homo sapiens)"
  inhibition at 1 µM / %: 85.2
- SMILES TEXT: "C/C(Nc1cc(C)n(CC(C)C)n1)=C1/C(=O)Nc2cnc(-c3c(C)cccc3F)cc21"
  TEST SYSTEM: "HPK1 (MAP4K1) (Homo sapiens)"
  inhibition at 1 µM / %: 75.7
- SMILES TEXT: "C/C(Nc1ccn(CC(C)(C)O)n1)=C1/C(=O)Nc2cnc(-c3cnccc3C)cc21"
  TEST SYSTEM: "HPK1 (MAP4K1) (Homo sapiens)"
  inhibition at 1 µM / %: 74.6
- SMILES TEXT: "C/C(Nc1cc(C)n([C@H](C)C#N)n1)=C1/C(=O)Nc2cnc(-c3cnccc3C)cc21"
  TEST SYSTEM: "HPK1 (MAP4K1) (Homo sapiens)"
  inhibition at 1 µM / %: 73.8
- SMILES TEXT: "C/C(Nc1ccn(CCN2CCOCC2)n1)=C1/C(=O)Nc2cnc(-c3cnccc3C)cc21"
  TEST SYSTEM: "HPK1 (MAP4K1) (Homo sapiens)"
  inhibition at 1 µM / %: 68
- SMILES TEXT: "CCn1ccc(N/C(C)=C2\\C(=O)Nc3cnc(-c4cnccc4C)cc32)n1"
  TEST SYSTEM: "HPK1 (MAP4K1) (Homo sapiens)"
  inhibition at 1 µM / %: 69.6
- SMILES TEXT: "C/C(Nc1cc(C)[nH]n1)=C1/C(=O)Nc2cnc(-c3cnccc3C)cc21"
  TEST SYSTEM: "HPK1 (MAP4K1) (Homo sapiens)"
  inhibition at 1 µM / %: 66.9
- SMILES TEXT: "C/C(Nc1cnn(C)c1)=C1/C(=O)Nc2cc(C#N)c(-c3cnccc3C)cc21"
  TEST SYSTEM: "HPK1 (MAP4K1) (Homo sapiens)"
  inhibition at 1 µM / %: 85.2
- SMILES TEXT: "COc1cccc(F)c1-c1cc2c(cn1)NC(=O)/C2=C(/C)Nc1cnn([C@H](C)C#N)c1"
  TEST SYSTEM: "HPK1 (MAP4K1) (Homo sapiens)"
  inhibition at 1 µM / %: 63.4

Query: I am curious: what inhibition at 1 µM value has been reported for C/C(Nc1cnn(C(F)F)c1)=C1/C(=O)Nc2cnc(-c3cnccc3C)cc21 ?
Response: 74.1

Query: Okay, and CNC(=O)C(C)(C)n1ccc(N/C(C)=C2\C(=O)Nc3cnc(-c4cnccc4C)cc32)n1 ?
Response: 78.4

Source of measurements: patent US20230009626A1
